For each entry below, report its IC50 IFN-γ, whole blood Donor A, recombinant mAb value.
- Test system: human Orai1 (human, UniProt Q96D31 1-301)
- Sequence (Q96D31 whole entry): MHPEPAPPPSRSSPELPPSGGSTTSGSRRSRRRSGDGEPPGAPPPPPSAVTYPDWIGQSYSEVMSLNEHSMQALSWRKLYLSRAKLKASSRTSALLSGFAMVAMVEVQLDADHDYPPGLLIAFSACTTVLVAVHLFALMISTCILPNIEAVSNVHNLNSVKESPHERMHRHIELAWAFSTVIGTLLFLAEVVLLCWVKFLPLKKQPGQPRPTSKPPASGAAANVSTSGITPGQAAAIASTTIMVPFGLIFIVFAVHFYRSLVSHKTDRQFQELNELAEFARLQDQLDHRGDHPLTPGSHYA
- Assay comment: cell-based or functional assay
Answers are plain numbers, in nM.

Field: example entries. Status: answers known.
INSERT INTO measurements (binder, measurement_unit, experimental_value) VALUES
  ('mAb 5D7.2 (antibody, human IgG2, lambda, V domains shown, fully human IgG2 lambda, Campaign 2, recombinant) VH: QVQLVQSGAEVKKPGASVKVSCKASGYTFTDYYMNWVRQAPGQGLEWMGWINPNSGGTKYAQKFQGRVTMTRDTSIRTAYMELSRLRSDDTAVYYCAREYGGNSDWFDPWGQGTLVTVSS VL: QSVLTQPPSVSGAPGQRVTISCTGSSSNIGAGYDVHWYQQSPGTAPKLLIYGNSNRPSGVPDRFSGSKSGTSASLAITGLQAEDEADYYCQSYDNRLSDSVVIGGGTKLTVQG', 'nM', 2.67),
  ('mAb 5A4.2 (antibody, human IgG2, lambda, V domains shown, fully human IgG2 lambda, Campaign 2) VH: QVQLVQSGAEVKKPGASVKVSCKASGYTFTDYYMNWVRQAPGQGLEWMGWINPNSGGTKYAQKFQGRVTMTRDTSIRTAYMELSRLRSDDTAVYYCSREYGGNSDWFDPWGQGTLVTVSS VL: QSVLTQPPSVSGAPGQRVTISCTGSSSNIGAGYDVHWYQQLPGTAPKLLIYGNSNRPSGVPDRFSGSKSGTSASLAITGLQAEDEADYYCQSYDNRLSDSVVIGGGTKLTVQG', 'nM', 0.59);

Q. Requested read-out: IC50 IFN-γ, whole blood Donor A, recombinant mAb. Entry: mAb 5H3.1 (antibody, human IgG2, lambda, V domains shown, fully human IgG2 lambda, Campaign 2, recombinant) VH: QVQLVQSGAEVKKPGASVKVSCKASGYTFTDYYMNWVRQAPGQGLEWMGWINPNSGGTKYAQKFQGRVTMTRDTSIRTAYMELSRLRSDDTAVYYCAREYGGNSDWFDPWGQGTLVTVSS VL: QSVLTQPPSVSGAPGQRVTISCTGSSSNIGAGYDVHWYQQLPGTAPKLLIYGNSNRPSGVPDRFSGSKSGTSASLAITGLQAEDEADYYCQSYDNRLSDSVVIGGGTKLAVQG
A. 0.1
